biological target: NMDA receptor; assay: Competitive radioligand binding at NMDA receptor ([3H] MK801), rat forebrain membranes; conditions: 0.2 nM [3H] MK801, reflects free base activity
readout: IC50

compound: COCCOCCN1CC[C@]23CCCC[C@H]2[C@H]1Cc1ccc(Nc2ccncc2)cc13 [Compound 98]
readout: IC50
recorded-value: 0.1 to 1 µM

compound: COCCOCCOCCNc1nc2cc3c(cc2s1)C[C@@H]1[C@@H]2CCCC[C@]32CCN1C [Compound 71]
readout: IC50
recorded-value: 1 to 10 µM

compound: CN1CC[C@]23CCCC[C@H]2[C@H]1Cc1ccc(Nc2cnccn2)cc13 [Compound 55]
readout: IC50
recorded-value: > 10 µM

compound: COCCOCCOCCOCCOCCO[C@H]1CC[C@H]2[C@H]3Cc4ccc(OC)cc4[C@@]2(CCN3C)C1 [Compound 2]
readout: IC50
recorded-value: > 10 µM

* * *

Item-by-item account of IC50
biological target: NMDA receptor; experiment: Competitive radioligand binding at NMDA receptor ([3H] MK801), rat forebrain membranes; settings: 0.2 nM [3H] MK801, reflects free base activity
readout: IC50

entry-smiles: CN1CC[C@]23CCCC[C@H]2[C@H]1Cc1cc2cccnc2cc13
recorded-value: 1000 to 10000 nM
//
entry-smiles: COCCN1CC[C@]23CCCC[C@H]2[C@H]1Cc1ccc(Nc2cccnc2)cc13
recorded-value: 1000 to 10000 nM
//
entry-smiles: COCCOCCOc1cc(Nc2ccc3c(c2)[C@@]24CCCC[C@H]2[C@@H](C3)N(C)CC4)ccn1
recorded-value: > 10000 nM
//
entry-smiles: COCCN1CC[C@]23CCCC[C@H]2[C@H]1Cc1ccc(Nc2ccncc2)cc13
recorded-value: 0.1 to 100 nM
//
entry-smiles: CN1CC[C@]23CCCC[C@H]2[C@H]1Cc1cc2ncc(N)nc2cc13
recorded-value: 100 to 1000 nM
//
entry-smiles: COCCOCCOc1ccc(Nc2ccc3c(c2)[C@@]24CCCC[C@H]2[C@@H](C3)N(C)CC4)cn1
recorded-value: > 10000 nM
//
entry-smiles: CN1CC[C@]23CCCC[C@H]2[C@H]1Cc1ccc(N)cc13
recorded-value: 100 to 1000 nM
//
entry-smiles: COCCOCCOCCOCCOCCOc1ccc(Nc2ccc3c(c2)[C@@]24CCCC[C@H]2[C@@H](C3)N(C)CC4)cn1
recorded-value: > 10000 nM

* * *

target: NMDA receptor; assay: Competitive radioligand binding at NMDA receptor ([3H] MK801), rat forebrain membranes; conditions: 0.2 nM [3H] MK801, reflects free base activity
// IC50 lookup, one value per entry

entry-smiles: COCCOCCN1CC[C@]23CC(=O)CC[C@H]2[C@H]1Cc1ccc(OC)cc13
IC50: > 10 µM
//
entry-smiles: COCCOCCOCCNc1nc2ccc3c(c2s1)[C@@]12CCCC[C@H]1[C@@H](C3)N(C)CC2
IC50: > 10 µM
//
entry-smiles: COCCOCCOCCOCCOCCOCC(=O)Nc1nc2cc3c(cc2s1)C[C@@H]1[C@@H]2CCCC[C@]32CCN1C
IC50: 1 to 10 µM
//
entry-smiles: COc1cccc(C(=O)Nc2ccc3c(c2)[C@@]24CCCC[C@H]2[C@@H](C3)N(C)CC4)c1
IC50: > 10 µM

* * *

Quick list: pIC50 per entry.
target: NMDA receptor; assay: Competitive radioligand binding at NMDA receptor ([3H] MK801), rat forebrain membranes; details: 0.2 nM [3H] MK801, reflects free base activity
pIC50: −log10 of the molar value.

entry-smiles: CN1CC[C@]23CCCC[C@H]2[C@H]1Cc1cc(C#N)c(N)cc13
pIC50: < 5.00
//
entry-smiles: COCCOCCOc1cccc(Nc2ccc3c(c2)[C@@]24CCCC[C@H]2[C@@H](C3)N(C)CC4)c1
pIC50: < 5.00
//
entry-smiles: COCCOCCN1CC[C@]23CCCC[C@H]2[C@H]1Cc1ccc(OC)cc13
pIC50: < 5.00
//
entry-smiles: COc1cccc(Nc2ccc3c(c2)[C@@]24CCCC[C@H]2[C@@H](C3)N(C)CC4)c1
pIC50: 5.00 to 6.00
//
entry-smiles: COCCOCCOCCOCCOCCOc1cncc(Nc2ccc3c(c2)[C@@]24CCCC[C@H]2[C@@H](C3)N(C)CC4)c1
pIC50: < 5.00
//
entry-smiles: CN1CC[C@]23CCCC[C@H]2[C@H]1Cc1ccc(Nc2ccnnc2)cc13
pIC50: 7.00 to 10.00
//
entry-smiles: COCCOCCOCCOCCOCCOc1ccc2c(c1)[C@@]13CCCC[C@H]1[C@@H](C2)N(C)CC3
pIC50: < 5.00
//
entry-smiles: COCCN1CC[C@]23CCCC[C@H]2[C@H]1Cc1ccc(OC)cc13
pIC50: 5.00 to 6.00

* * *

molecular target: mu opioid receptor (MOR) (Homo sapiens (Human), UniProt P35372); experiment: Competitive radioligand binding at MOR ([3H] Naloxone); conditions: membranes from CHO-K1 cells expressing MOR; 2 nM [3H] Naloxone; reflects free base activity; read-out: MOR IC50
pIC50: −log10 of the molar value.

entry-smiles: COCCOCCOCCN1CC[C@]23CCCC[C@H]2[C@H]1Cc1ccc(OC)cc13
pIC50: < 6.00

entry-smiles: COCCNc1cc2c(cc1[N+](=O)[O-])C[C@@H]1[C@@H]3CCCC[C@]23CCN1C
pIC50: < 6.00

entry-smiles: COCCOCCOCCN1CC[C@]23CCCC[C@H]2[C@H]1Cc1ccc(O)cc13
pIC50: < 6.00

entry-smiles: CN1CC[C@]23CCCC[C@H]2[C@H]1Cc1cc2ncc(N)nc2cc13
pIC50: < 6.00

entry-smiles: COCCOCCOCCOCCOCCOc1cncc(Nc2ccc3c(c2)[C@@]24CCCC[C@H]2[C@@H](C3)N(C)CC4)c1
pIC50: 7.00 to 8.00

entry-smiles: COCCOCCOCCOCCOCCOc1ccc(Nc2ccc3c(c2)[C@@]24CCCC[C@H]2[C@@H](C3)N(C)CC4)cn1
pIC50: 7.00 to 8.00

entry-smiles: COCCOCCN1CC[C@]23CCCC[C@H]2[C@H]1Cc1ccc(Nc2ccnnc2)cc13
pIC50: < 6.00

* * *

The reader will find reported pIC50 values listed item by item below.
target: UniProtKB P35372; test: cAMP accumulation assay (inhibition of forskolin-stimulated cAMP) in CHO-K1 cells stably expressing hMOR; type: cell-based
pIC50: −log10 of the molar value.

compound: COCCN1CC[C@]23CC(=O)CC[C@H]2[C@H]1Cc1ccc(O)cc13
pIC50: 8.00 to 10.00

compound: COCCN1CC[C@]23CCCC[C@H]2[C@H]1Cc1ccc(O)cc13 [Compound 113, 3-hydroxy-17-(2-methoxyethyl)morphinan]
pIC50: 8.00 to 10.00

compound: COCCOc1c(O)ccc2c1[C@@]13CCCC[C@H]1[C@@H](C2)N(C)CC3
pIC50: 7.00 to 8.00

compound: COCCNC(=O)Oc1ccc2c(c1)[C@@]13CCCC[C@H]1[C@@H](C2)N(C)CC3
pIC50: 6.00 to 7.00

compound: CN1CC[C@]23CCCC[C@H]2[C@H]1Cc1ccc(Nc2nccs2)cc13
pIC50: 7.00 to 8.00

compound: COCCOCCOCCO[C@@H]1CC[C@H]2[C@H]3Cc4ccc(O)cc4[C@@]2(CCN3C)C1
pIC50: 8.00 to 10.00

compound: COCCOCCOCC(=O)Nc1ccc2c(c1)[C@@]13CCCC[C@H]1[C@@H](C2)N(C)CC3
pIC50: 6.00 to 7.00

compound: COc1ccccc1Nc1ccc2c(c1)[C@@]13CCCC[C@H]1[C@@H](C2)N(C)CC3
pIC50: 7.00 to 8.00

* * *

target: mu opioid receptor (MOR) (Homo sapiens (Human)); assay: Competitive radioligand binding at MOR ([3H] Naloxone); conditions: membranes from CHO-K1 cells expressing MOR; 2 nM [3H] Naloxone; reflects free base activity; read-out: MOR IC50
Entries annotated with measured IC50

compound: COCCOCCOCCOCCOCCCC(=O)Nc1nc2cc3c(cc2s1)C[C@@H]1[C@@H]2CCCC[C@]32CCN1C
subject-of-test: mu opioid receptor (MOR) (Homo sapiens (Human))
IC50: > 1000 nM
//
compound: CN1CC[C@]23CCCC[C@H]2[C@H]1Cc1ccc(Nc2ncccn2)cc13
subject-of-test: mu opioid receptor (MOR) (Homo sapiens (Human))
IC50: > 1000 nM
//
compound: COCCOCCn1cc(-c2ccc3c(c2)C24CCCCC2C(C3)N(C)CC4)cn1 (stereo not shown)
subject-of-test: mu opioid receptor (MOR) (Homo sapiens (Human))
IC50: > 1000 nM
//
compound: CN1CC[C@]23CCCC[C@H]2[C@H]1Cc1cc2nc(N)[nH]c2cc13
subject-of-test: mu opioid receptor (MOR) (Homo sapiens (Human))
IC50: 100 to 1000 nM
//
compound: COCCOCCOCCOCCOCCNc1nc2ccc3c(c2s1)[C@@]12CCCC[C@H]1[C@@H](C3)N(C)CC2
subject-of-test: mu opioid receptor (MOR) (Homo sapiens (Human))
IC50: > 1000 nM
//
compound: CN1CC[C@]23CCCC[C@H]2[C@H]1Cc1cc2cccnc2cc13
subject-of-test: mu opioid receptor (MOR) (Homo sapiens (Human))
IC50: 100 to 1000 nM
//
compound: CN1CC[C@]23CCCC[C@H]2[C@H]1Cc1cc2nnc(N)nc2cc13
subject-of-test: mu opioid receptor (MOR) (Homo sapiens (Human))
IC50: > 1000 nM
//
compound: CN1CC[C@]23CCCC[C@H]2[C@H]1Cc1ccc(-c2cnc(N)nc2)cc13
subject-of-test: mu opioid receptor (MOR) (Homo sapiens (Human))
IC50: > 1000 nM
//
compound: COCCOCCOCCOCCOCCOCC(=O)Nc1nc2cc3c(cc2s1)C[C@@H]1[C@@H]2CCCC[C@]32CCN1C
subject-of-test: mu opioid receptor (MOR) (Homo sapiens (Human))
IC50: 100 to 1000 nM
//
compound: Oc1ccc2c(c1)[C@@]13CCCC[C@H]1[C@@H](C2)N(C1COC1)CC3
subject-of-test: mu opioid receptor (MOR) (Homo sapiens (Human))
IC50: > 1000 nM
//
compound: COCCOCCOc1cncc(Nc2ccc3c(c2)[C@@]24CCCC[C@H]2[C@@H](C3)N(C)CC4)c1
subject-of-test: mu opioid receptor (MOR) (Homo sapiens (Human))
IC50: 10 to 100 nM
//
compound: COCCOCCOc1ccccc1Nc1ccc2c(c1)[C@@]13CCCC[C@H]1[C@@H](C2)N(C)CC3
subject-of-test: mu opioid receptor (MOR) (Homo sapiens (Human))
IC50: 100 to 1000 nM
//
compound: COCCOCCOCCOCCOCCO[C@H]1CC[C@H]2[C@H]3Cc4ccc(OC)cc4[C@@]2(CCN3C)C1
subject-of-test: mu opioid receptor (MOR) (Homo sapiens (Human))
IC50: > 1000 nM
//
compound: COCCOCCOc1cnccc1Nc1ccc2c(c1)[C@@]13CCCC[C@H]1[C@@H](C2)N(C)CC3
subject-of-test: mu opioid receptor (MOR) (Homo sapiens (Human))
IC50: 100 to 1000 nM
//
compound: COCCOCCOCCNc1nc2cc3c(cc2s1)C[C@@H]1[C@@H]2CCCC[C@]32CCN1C
subject-of-test: mu opioid receptor (MOR) (Homo sapiens (Human))
IC50: 100 to 1000 nM
//
compound: COCCOc1cc(O)cc2c1C[C@@H]1[C@@H]3CCCC[C@]23CCN1C
subject-of-test: mu opioid receptor (MOR) (Homo sapiens (Human))
IC50: > 1000 nM
//
compound: COCCOCCOc1ccc(Nc2ccc3c(c2)[C@@]24CCCC[C@H]2[C@@H](C3)N(C)CC4)cn1
subject-of-test: mu opioid receptor (MOR) (Homo sapiens (Human))
IC50: 10 to 100 nM
//
compound: COCCOCCOc1cc(Nc2ccc3c(c2)[C@@]24CCCC[C@H]2[C@@H](C3)N(C)CC4)ccn1
subject-of-test: mu opioid receptor (MOR) (Homo sapiens (Human))
IC50: 100 to 1000 nM
//
compound: CN1CC[C@]23CCCC[C@H]2[C@H]1Cc1cc2sc(NC(=N)N)nc2cc13
subject-of-test: mu opioid receptor (MOR) (Homo sapiens (Human))
IC50: 100 to 1000 nM
//
compound: COCCOCCOCC(=O)Nc1nc2cc3c(cc2s1)C[C@@H]1[C@@H]2CCCC[C@]32CCN1C
subject-of-test: mu opioid receptor (MOR) (Homo sapiens (Human))
IC50: > 1000 nM
//
compound: COCCOCCOCCNC(=O)c1ccc2c(c1)[C@@]13CCCC[C@H]1[C@@H](C2)N(C)CC3
subject-of-test: mu opioid receptor (MOR) (Homo sapiens (Human))
IC50: > 1000 nM
//
compound: COCCOCCOCCO[C@H]1CCC[C@H]2[C@H]3Cc4ccc(O)cc4[C@@]12CCN3C
subject-of-test: mu opioid receptor (MOR) (Homo sapiens (Human))
IC50: 10 to 100 nM
//
compound: CCNC(=O)N1CC[C@]23CCCC[C@H]2[C@H]1Cc1ccc(OC)cc13
subject-of-test: mu opioid receptor (MOR) (Homo sapiens (Human))
IC50: > 1000 nM
//
compound: COCCOCCN1CC[C@]23CCCC[C@H]2[C@H]1Cc1ccc(-c2cn[nH]c2)cc13
subject-of-test: mu opioid receptor (MOR) (Homo sapiens (Human))
IC50: > 1000 nM
//
compound: COCCNC(=N)Nc1nc2cc3c(cc2s1)C[C@@H]1[C@@H]2CCCC[C@]32CCN1C
subject-of-test: mu opioid receptor (MOR) (Homo sapiens (Human))
IC50: 100 to 1000 nM
